- Tested on: Histidinol dehydrogenase (Escherichia coli (strain K12), UniProt P06988)
- Sequence (P06988 whole entry): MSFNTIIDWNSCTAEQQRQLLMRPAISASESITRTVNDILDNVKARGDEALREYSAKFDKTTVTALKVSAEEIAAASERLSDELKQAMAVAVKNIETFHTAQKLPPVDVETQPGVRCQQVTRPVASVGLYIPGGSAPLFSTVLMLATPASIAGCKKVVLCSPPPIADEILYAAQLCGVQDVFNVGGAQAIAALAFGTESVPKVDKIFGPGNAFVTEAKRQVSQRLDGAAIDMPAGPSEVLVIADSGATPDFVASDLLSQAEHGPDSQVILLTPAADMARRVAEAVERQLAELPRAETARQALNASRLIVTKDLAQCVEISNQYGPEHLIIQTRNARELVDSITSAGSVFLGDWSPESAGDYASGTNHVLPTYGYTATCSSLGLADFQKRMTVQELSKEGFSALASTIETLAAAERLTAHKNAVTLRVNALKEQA
- Assay info: Inhibition of Escherichia coli histidinol dehydrogenase preincubated for 10 min before substrate histidinol addition by spectrophotometry
Quantity name: pKi
By convention, pKi is the negative base-10 log of a molar concentration.

So, CC(=O)C(N)Cc1c[nH]cn1 (stereo unspecified) ? Its pKi was 5.30

----------
- Tested on: Histidinol dehydrogenase (Escherichia coli (strain K12))
- Assay info: Inhibition of Escherichia coli histidinol dehydrogenase preincubated for 10 min before substrate histidinol addition by spectrophotometry
Quantity name: pIC50
# pIC50 = -log10(concentration in molar units)

Look over these answered cases.
[
  {
    "Molecule": "N[C@@H](Cc1c[nH]cn1)C(=O)C(F)(F)C(F)(F)F",
    "Tested on": "Histidinol dehydrogenase (Escherichia coli (strain K12))",
    "Quantity name": "pIC50",
    "Observed measurement": 4.70
  },
  {
    "Molecule": "N[C@@H](Cc1c[nH]cn1)C(=O)Cc1ccccc1",
    "Tested on": "Histidinol dehydrogenase (Escherichia coli (strain K12))",
    "Quantity name": "pIC50",
    "Observed measurement": 6.00
  },
  {
    "Molecule": "N[C@@H](Cc1c[nH]cn1)C(=O)CCCc1ccccc1",
    "Tested on": "Histidinol dehydrogenase (Escherichia coli (strain K12))",
    "Quantity name": "pIC50",
    "Observed measurement": 4.10
  },
  {
    "Molecule": "CC(=O)C(N)Cc1c[nH]cn1 (configuration not stated)",
    "Tested on": "Histidinol dehydrogenase (Escherichia coli (strain K12))",
    "Quantity name": "pIC50",
    "Observed measurement": 5.00
  }
]

Okay, next one:
The measured pIC50 associated with N[C@@H](Cc1c[nH]cn1)C(=O)CCc1ccccc1 reads 4.00
